Biological target: T1, human CD39 protein (recombinant) (human, UniProt P49961 38-478, limits assumed)
T1 sequence: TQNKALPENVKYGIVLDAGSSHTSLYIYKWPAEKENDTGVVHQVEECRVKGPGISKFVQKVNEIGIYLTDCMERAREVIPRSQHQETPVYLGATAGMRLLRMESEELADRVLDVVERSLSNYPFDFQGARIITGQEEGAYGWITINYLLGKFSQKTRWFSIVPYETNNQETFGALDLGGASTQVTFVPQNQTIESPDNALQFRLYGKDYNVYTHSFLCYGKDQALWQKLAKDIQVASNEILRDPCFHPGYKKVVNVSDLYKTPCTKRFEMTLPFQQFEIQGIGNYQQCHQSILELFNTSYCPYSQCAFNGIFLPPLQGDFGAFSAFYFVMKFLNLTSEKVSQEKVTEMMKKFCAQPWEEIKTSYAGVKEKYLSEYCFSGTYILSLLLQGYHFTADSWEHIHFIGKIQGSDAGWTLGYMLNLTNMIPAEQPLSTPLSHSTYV
Assay: cell-based or functional assay
Reported Endpoint: ATPase inhibition IC50 (nM)
Give bare numbers, in nM.

Input EM0004-38c1 (antibody, human IgG1, kappa, L234A L235A, name in Kabat numbering, V domains shown, chimeric mAb638 variant; also called EM004-38c1) VH: QVQLQQPGTELVKPGASVKLSCKASGYTFTSFWMHWVKQRPGQGLEWIGNINPRQGATKYNEKFRSKVTLTADKTSSTAYMHLSSLTSEDSAVYYCAREDYDEIYYAMDSWGQGTSVTVSS VL: QNVLTQSPAIMSASPGEKVTMTCSASSSVIYMYWFQQKPGSSPRVLIYDTSNLASGVPARFSGSGSGTSYSLTISRMEAEDAATYYCQQWSTYPLTFGAGTKLELKR . Output ATPase inhibition IC50: 15.6

Origin of measurements: patent US20220389111A1
